Value source: ChEMBL document CHEMBL3526147

Tested on: Plasma
experimental details: Drug level in plasma of beagle dog treated with [14C]casopitant mesylate at 40 mg/kg/day, po administered as repeat dose measured after 24 hrs on day 14 by HPLC-MS/MS method relative to [14C]casopitant mesylate radioactivity
Type: ADME, organism-based, Canis lupus familiaris
Set-up: dosed compound name [14C]Casopitant, route oral
setup conditions: in vivo
Consider the following molecules; for each one, report its Compound recovery.
Kindly provide the numeric value in % only, without the unit symbol.

**Query** Notebook entry, Plasma assay: Compound recovery of CC(=O)N1CCN([C@H]2CCN(C(=O)N(C)[C@H](C)c3cc(C(F)(F)F)cc(C(F)(F)F)c3)[C@@H](c3ccc(F)cc3C)C2)CC1.CS(=O)(=O)O [CASOPITANT MESYLATE] = ?
**Result** 1.9

**Query** Notebook entry, Plasma assay: Compound recovery of Cc1cc(F)ccc1[C@H]1C[C@@H](N2CCNC(=O)C2)CCN1C(=O)N(C)[C@H](C)c1cc(C(F)(F)F)cc(C(F)(F)F)c1 = ?
**Result** 4.1

**Query** Notebook entry, Plasma assay: Compound recovery of Cc1cc(F)ccc1[C@H]1C[C@@H](N2CCNCC2)CCN1C(=O)N(C)[C@H](C)c1cc(C(F)(F)F)cc(C(F)(F)F)c1 = ?
**Result** 0.8

**Query** Notebook entry, Plasma assay: Compound recovery of CC(=O)N1CCN([C@H]2CCN(C(=O)N(C)[C@H](C)c3cc(C(F)(F)F)cc(C(F)(F)F)c3)[C@@H](c3ccc(F)cc3C)C2)CC1O (stereo partly specified) = ?
**Result** 4.8

**Query** Notebook entry, Plasma assay: Compound recovery of CC(=O)N1CCN([C@H]2CCN(C(=O)N(C)[C@H](C)c3cc(C(F)(F)F)cc(C(F)(F)F)c3)[C@@H](c3ccc(F)cc3C)C2)CC1=O = ?
**Result** 0.9

* * *

System: Canis familiaris
experimental details: Tmax in beagle dog treated with [14C]casopitant mesylate at 40 mg/kg/day, po administered as repeat dose measured after 26 weeks by HPLC-MS/MS method
Type: ADME, organism-based, Canis lupus familiaris
Parameters: dosed compound name [14C]Casopitant, route oral
setup conditions: in vivo, 4368 h
property measured: Tmax (h)
Kindly provide the numeric value in h only, without the unit symbol.

**Query** Request the reported Tmax associated with Cc1cc(F)ccc1[C@H]1C[C@@H](N2CCNCC2)CCN1C(=O)N(C)[C@H](C)c1cc(C(F)(F)F)cc(C(F)(F)F)c1
**Result** 8

**Query** Request the reported Tmax associated with CC(=O)N1CCN([C@H]2CCN(C(=O)N(C)[C@H](C)c3cc(C(F)(F)F)cc(C(F)(F)F)c3)[C@@H](c3ccc(F)cc3C)C2)CC1.CS(=O)(=O)O [CASOPITANT MESYLATE]
**Result** 1

**Query** Request the reported Tmax associated with Cc1cc(F)ccc1[C@H]1C[C@@H](N2CCNC(=O)C2)CCN1C(=O)N(C)[C@H](C)c1cc(C(F)(F)F)cc(C(F)(F)F)c1
**Result** 8

* * *

experimental details: Drug level in myocardium of beagle dog treated with [14C]casopitant mesylate at 40 mg/kg/day, po administered as repeat dose measured after 6 weeks by HPLC-MS/MS method
Assay type: ADME, organism-based, Canis lupus familiaris
Set-up: dosed compound name [14C]Casopitant, route oral
setup conditions: in vivo, 1008 h
property measured: Compound recovery
Answer as a quantity: numeral, then unit.

**Query** Request the reported Compound recovery associated with CC(=O)N1CCN([C@H]2CCN(C(=O)N(C)[C@H](C)c3cc(C(F)(F)F)cc(C(F)(F)F)c3)[C@@H](c3ccc(F)cc3C)C2)CC1O (some centres not stated)
**Result** 2041 ng/g

**Query** Request the reported Compound recovery associated with Cc1cc(F)ccc1[C@H]1C[C@@H](N2CCNCC2)CCN1C(=O)N(C)[C@H](C)c1cc(C(F)(F)F)cc(C(F)(F)F)c1
**Result** 3623 ng/g

**Query** Request the reported Compound recovery associated with CC(=O)N1CCN([C@H]2CCN(C(=O)N(C)[C@H](C)c3cc(C(F)(F)F)cc(C(F)(F)F)c3)[C@@H](c3ccc(F)cc3C)C2)CC1.CS(=O)(=O)O [CASOPITANT MESYLATE]
**Result** 467 ng/g

**Query** Request the reported Compound recovery associated with Cc1cc(F)ccc1[C@H]1C[C@@H](N2CCNC(=O)C2)CCN1C(=O)N(C)[C@H](C)c1cc(C(F)(F)F)cc(C(F)(F)F)c1
**Result** 1517 ng/g

**Query** Request the reported Compound recovery associated with CC(=O)NCCN[C@H]1CCN(C(=O)N(C)[C@H](C)c2cc(C(F)(F)F)cc(C(F)(F)F)c2)[C@@H](c2ccc(F)cc2C)C1
**Result** 2379 ng/g

**Query** Request the reported Compound recovery associated with Cc1cc(F)ccc1[C@H]1C[C@@H](NCCN)CCN1C(=O)N(C)[C@H](C)c1cc(C(F)(F)F)cc(C(F)(F)F)c1
**Result** 39180 ng/g

**Query** Request the reported Compound recovery associated with Cc1cc(F)ccc1[C@H]1C[C@@H](N)CCN1C(=O)N(C)[C@H](C)c1cc(C(F)(F)F)cc(C(F)(F)F)c1
**Result** 29401 ng/g

* * *

Consider the following compounds; for each one, report its AUCt.
Test system: Canis familiaris
experimental details: AUC (0 to t) in beagle dog treated with [14C]casopitant mesylate at 40 mg/kg/day, po administered as repeat dose measured after 26 weeks by HPLC-MS/MS method
Type: ADME, organism-based, Canis lupus familiaris, Plasma
Design: dosed compound name [14C]Casopitant, route oral
setup conditions: in vivo, 4368 h
Kindly provide the numeric value in ng·h/mL only, without the unit symbol.

**Query** Notebook entry, Canis familiaris assay: AUCt of Cc1cc(F)ccc1[C@H]1C[C@@H](N2CCNC(=O)C2)CCN1C(=O)N(C)[C@H](C)c1cc(C(F)(F)F)cc(C(F)(F)F)c1 = ?
**Result** 21248

**Query** Notebook entry, Canis familiaris assay: AUCt of Cc1cc(F)ccc1[C@H]1C[C@@H](N)CCN1C(=O)N(C)[C@H](C)c1cc(C(F)(F)F)cc(C(F)(F)F)c1 = ?
**Result** 22858

**Query** Notebook entry, Canis familiaris assay: AUCt of CC(=O)NCCN[C@H]1CCN(C(=O)N(C)[C@H](C)c2cc(C(F)(F)F)cc(C(F)(F)F)c2)[C@@H](c2ccc(F)cc2C)C1 = ?
**Result** 3040

**Query** Notebook entry, Canis familiaris assay: AUCt of CC(=O)N1CCN([C@H]2CCN(C(=O)N(C)[C@H](C)c3cc(C(F)(F)F)cc(C(F)(F)F)c3)[C@@H](c3ccc(F)cc3C)C2)CC1O (some centres undefined) = ?
**Result** 61603

* * *

experimental details: Drug level in myocardium of beagle dog treated with [14C]casopitant mesylate at 40 mg/kg/day, po administered as repeat dose measured after 26 weeks by HPLC-MS/MS method
Assay type: ADME, organism-based, Canis lupus familiaris
Parameters: dosed compound name [14C]Casopitant, route oral
setup conditions: in vivo, 4368 h
property measured: Compound recovery (ng/g)
Kindly provide the numeric value in ng/g only, without the unit symbol.

**Query** Request the reported Compound recovery associated with CC(=O)NCCN[C@H]1CCN(C(=O)N(C)[C@H](C)c2cc(C(F)(F)F)cc(C(F)(F)F)c2)[C@@H](c2ccc(F)cc2C)C1
**Result** 6644

**Query** Request the reported Compound recovery associated with Cc1cc(F)ccc1[C@H]1C[C@@H](NCCN)CCN1C(=O)N(C)[C@H](C)c1cc(C(F)(F)F)cc(C(F)(F)F)c1
**Result** 114014

**Query** Request the reported Compound recovery associated with CC(=O)N1CCN([C@H]2CCN(C(=O)N(C)[C@H](C)c3cc(C(F)(F)F)cc(C(F)(F)F)c3)[C@@H](c3ccc(F)cc3C)C2)CC1.CS(=O)(=O)O [CASOPITANT MESYLATE]
**Result** 889

* * *

Test system: Canis familiaris
experimental details: Tmax in beagle dog treated with [14C]casopitant mesylate at 40 mg/kg/day, po administered as repeat dose measured after 26 weeks by HPLC-MS/MS method
Format: ADME, organism-based, Canis lupus familiaris
Set-up: dosed compound name [14C]Casopitant, route oral
setup conditions: in vivo, 4368 h
Consider the following compounds; for each one, report its Tmax.
Kindly provide the numeric value in h only, without the unit symbol.

**Query** Notebook entry, Canis familiaris assay: Tmax of Cc1cc(F)ccc1[C@H]1C[C@@H](NCCN)CCN1C(=O)N(C)[C@H](C)c1cc(C(F)(F)F)cc(C(F)(F)F)c1 = ?
**Result** 24

**Query** Notebook entry, Canis familiaris assay: Tmax of CC(=O)NCCN[C@H]1CCN(C(=O)N(C)[C@H](C)c2cc(C(F)(F)F)cc(C(F)(F)F)c2)[C@@H](c2ccc(F)cc2C)C1 = ?
**Result** 1

**Query** Notebook entry, Canis familiaris assay: Tmax of Cc1cc(F)ccc1[C@H]1C[C@@H](N)CCN1C(=O)N(C)[C@H](C)c1cc(C(F)(F)F)cc(C(F)(F)F)c1 = ?
**Result** 24

**Query** Notebook entry, Canis familiaris assay: Tmax of CC(=O)N1CCN([C@H]2CCN(C(=O)N(C)[C@H](C)c3cc(C(F)(F)F)cc(C(F)(F)F)c3)[C@@H](c3ccc(F)cc3C)C2)CC1O (some centres undefined) = ?
**Result** 4
